target: T1, Human Mcl-1 protein, residues 171-327, N-terminal 8xHis tag (human, UniProt Q07820-1 171-327); assay: fluorescence polarisation; saturation experiments with FAM-Bid and Mcl-1 or Bcl-2 protein; assay buffer 100 mM potassium phosphate, pH 7.5, 100 ug/ml bovine gamma globulin, 0.02% sodium azide; settings: both partners purified
T1 construct: human Mcl-1 fragment (NM_021960), residues 171-327; Cloned into the pHis-TEV vector; source: E. coli BL21(DE3), purified (Ni-NTA, Source Q15)
T1 sequence (Q07820 171-327): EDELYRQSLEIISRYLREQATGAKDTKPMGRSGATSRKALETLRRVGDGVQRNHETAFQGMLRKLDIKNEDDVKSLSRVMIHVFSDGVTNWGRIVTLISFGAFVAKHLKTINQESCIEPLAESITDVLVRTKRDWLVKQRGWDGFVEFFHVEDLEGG
pKd: −log10 of the molar value. Ends that are not written are not given here. * marks the point of attachment. 6FAM = O=C1OC2(c3ccc(O)cc3Oc3cc(O)ccc32)c2cc(C(=O)*)ccc21
Property Measured: pKd

1. 6FAM-QEDIIRNIARHLAQVGDSMDR (Bid BH3 peptide, residues 79-99 of Swiss-Prot P55957; also called Flu-Bid; source: synthetic peptide): 8.55
